Substrate: O=[N+]([O-])c1ccc2c(c1)OCO2
Assay: purified protein
Type: biochemical, Cyclocybe aegerita
Details: H2O2 1 mM, potassium phosphate 50 mM pH 7.0, 20% v/v acetonitrile
I'd be grateful if you could share measured kcat/Km for these entries.

| protein | kcat/Km |
| --- | --- |
| PaDa-I (AaeUPO variant) (Cyclocybe aegerita; F119L/F234A/F354L/I291V/L110F/V100A/V118I) (protein, laboratory-evolved secreted variant; plasmid pJRoC30-PaDa-I in Saccharomyces cerevisiae BJ5465, purified; only F311L given; recalled mature changes V57A/L67F/V75I/I248V/F311L (plus signal peptide F12Y/A14V/R15G/A21D); heme-thiolate, N-glycosylated) EPGLPPGPLENSSAKLVNDEAHPWKPLRPGDIRGPCPGLNTLASHGYLPRNGVATPAQIINAVQEGFNFDNQAAILATYAAHLVDGNLITDLLSIGRKTRLTGPDPPPPASVGGLNEHGTFEGDASMTRGDAFFGNNHDFNETLFEQLVDYSNRFGGGKYNLTVAGELRFKRIQDSIATNPNFSFVDFRFATAYGETTFPANLFVDGRRDDGQLDMDAARSFFQFSRMPDDFFRAPSPRSGTGVEVVVQAHPMQPGRNVGKINSYTVDPTSSDFSTPCLMYEKFVNITVKSLYPNPTVQLRKALNTNLDFLFQGVAAGCTQVFPYGRD | 214000 M⁻¹ s⁻¹ |
| PaDa-I (AaeUPO variant) (Cyclocybe aegerita; F119L/F354L/I291V/L110F/V100A/V118I) (protein, laboratory-evolved secreted variant; plasmid pJRoC30-PaDa-I in Saccharomyces cerevisiae BJ5465, purified; only F311L given; recalled mature changes V57A/L67F/V75I/I248V/F311L (plus signal peptide F12Y/A14V/R15G/A21D); heme-thiolate, N-glycosylated) EPGLPPGPLENSSAKLVNDEAHPWKPLRPGDIRGPCPGLNTLASHGYLPRNGVATPAQIINAVQEGFNFDNQAAILATYAAHLVDGNLITDLLSIGRKTRLTGPDPPPPASVGGLNEHGTFEGDASMTRGDAFFGNNHDFNETLFEQLVDYSNRFGGGKYNLTVAGELRFKRIQDSIATNPNFSFVDFRFFTAYGETTFPANLFVDGRRDDGQLDMDAARSFFQFSRMPDDFFRAPSPRSGTGVEVVVQAHPMQPGRNVGKINSYTVDPTSSDFSTPCLMYEKFVNITVKSLYPNPTVQLRKALNTNLDFLFQGVAAGCTQVFPYGRD | 510000 M⁻¹ s⁻¹ |

Note: attention shifts to another entry.
Entry PaDa-I (AaeUPO variant) (Cyclocybe aegerita; F234A/F354L/I291V/L110F/V100A/V118I) (protein, laboratory-evolved secreted variant; plasmid pJRoC30-PaDa-I in Saccharomyces cerevisiae BJ5465, purified; only F311L given; recalled mature changes V57A/L67F/V75I/I248V/F311L (plus signal peptide F12Y/A14V/R15G/A21D); heme-thiolate, N-glycosylated) EPGLPPGPLENSSAKLVNDEAHPWKPLRPGDIRGPCPGLNTLASHGYLPRNGVATPAQIINAVQEGFNFDNQAAIFATYAAHLVDGNLITDLLSIGRKTRLTGPDPPPPASVGGLNEHGTFEGDASMTRGDAFFGNNHDFNETLFEQLVDYSNRFGGGKYNLTVAGELRFKRIQDSIATNPNFSFVDFRFATAYGETTFPANLFVDGRRDDGQLDMDAARSFFQFSRMPDDFFRAPSPRSGTGVEVVVQAHPMQPGRNVGKINSYTVDPTSSDFSTPCLMYEKFVNITVKSLYPNPTVQLRKALNTNLDFLFQGVAAGCTQVFPYGRD , kcat/Km reported as 531000 M⁻¹ s⁻¹
